# Target entity: T1, human CD22 on B cells of human PBMCs (human, UniProt P20273 20-847)
# T1 construct: whole, on cells; also called CD22 on human B cells
# Experiment summary: flow cytometry; Alexa Fluor 647-labelled antibody, human PBMCs
Parameter: CD22: CD20+/CD20- (ratio of median fluorescent intensity)

Binder	Result
TNT86 (antibody, human IgG1, kappa, V domains shown) VH: QVQLLESGGGVVQPGGSLRLSCAASGFAFSIYDMNWVRQAPGKGLEWVSAISSGGGTTYYADSVKGRFTISRDNAKNSLYLQMNSLRAEDTAVYYCARHSGYGTHWGVLFAYWGRGTLVTVSS VL: DIVMTQTPLSLSVTPGQPASISCRASQDIHGYLNWYQQKPGQSPQLLIYYTSILHSGVPDRFSGSGSGTDFTLKISRVEAEDVGVYFCQQGNTLPWTFGGGTKLEIKR	23.9 fold

All figures here come from patent US20220380768A1.
